# targetDesc: factor Xa (Homo sapiens, UniProt P00742)
# Construct: human factor Xa samples; gift of Dr. T. Lindhout (University of Limburg, Maastricht)
# Sequence (P00742 41-179 limits assumed): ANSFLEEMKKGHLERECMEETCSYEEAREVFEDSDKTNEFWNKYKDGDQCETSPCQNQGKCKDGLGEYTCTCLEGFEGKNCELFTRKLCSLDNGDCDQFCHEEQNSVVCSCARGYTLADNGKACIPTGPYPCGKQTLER
# Sequence (P00742 235-488 limits assumed): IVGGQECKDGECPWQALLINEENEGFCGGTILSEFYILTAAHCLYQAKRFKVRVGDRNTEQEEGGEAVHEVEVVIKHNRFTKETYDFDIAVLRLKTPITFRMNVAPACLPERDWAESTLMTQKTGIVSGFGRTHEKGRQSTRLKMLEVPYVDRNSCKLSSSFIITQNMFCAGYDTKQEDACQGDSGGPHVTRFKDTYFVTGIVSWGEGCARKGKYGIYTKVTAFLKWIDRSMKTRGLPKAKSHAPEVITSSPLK
# measurementNotes: Kinetic parameters of hydrolysis of the substrates by factor Xa in buffer A at 37° C. (Example 4, Table 3)
# Format: biochemical
# Parameters: key: NH: no hydrolysis
# assaySetup: buffer A, 37° C., 50 nM factor Xa
Square brackets hold non-standard residues; d marks the D form. Peptide text beside a SMILES is read from it. * marks the point of attachment. pNA = O=[N+]([O-])c1ccc(N*)cc1; Orn = NCCC[C@H](N)C(=O)O
valueKind: Factor Xa kcat

Some molecules with recorded Factor Xa kcat:
1. CC(C)[C@H](NC(=O)CN)C(=O)N[C@@H](CCCN)C(=O)Nc1ccc([N+](=O)[O-])cc1.Cl.Cl [2HCl.H-Gly-Val-Orn-pNA] (H-Gly-Val-[Orn]-pNA): NH
2. CC(C)[C@H](NC(=O)CN)C(=O)N[C@@H](CCCCN)C(=O)Nc1ccc([N+](=O)[O-])cc1.Cl.Cl [2HCl.H-Gly-Val-Lys pNA, 2HCl.H-Gly-Val-Lys-pNA] (H-Gly-Val-Lys-pNA): NH
3. Cl.Cl.NCCCC[C@H](NC(=O)[C@@H]1CCCN1C(=O)[C@H](N)Cc1ccccc1)C(=O)Nc1ccc([N+](=O)[O-])cc1 [2HCl.H-D-Phe-Pro-Lys-pNA] (H-[dF]-Pro-Lys-pNA): NH
4. CC(C)C(N)C(=O)NC(CCCCN)C(=O)Nc1ccc([N+](=O)[O-])cc1.Cl.Cl (stereo not drawn) [2HCl.H-Val-Lys-pNA]: NH

Could you now consider this next molecule?
Input: Identify the measured Factor Xa kcat of CC(C)[C@H](NC(=O)CNC(=O)[C@@H](N)CCC(=O)O)C(=O)N[C@@H](CCCNC(=N)N)C(=O)Nc1ccc([N+](=O)[O-])cc1 [2HCl.H-Glu-Gly-Val-Arg-pNA] (H-EGVR-pNA) for factor Xa (Homo sapiens, UniProt P00742).
Output: 0.93 s⁻¹
